Target Entity: T1, AAV5
T1 construct: also called adeno-associated virus serotype 5
Experiment Notes: SPR, AAV on CM5 chip;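 note: surface plasmon resonance with AAV amine-coupled to the chip as ligand, nanobodies injected as analyte over a concentration series, rate constants and affinity fitted from binding curves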
Endpoint Label: Kd (nM)
Record the value in nM, omitting the unit from your answer.

query: Given the entry A4-006 (VHH) VHH: VQLQESGGGLVQPGGSLRLSCAASGRHFSINTMGWYRQAPGKQRELVAAVTRGGSTNYAGSVKGRFTISRDNAKNTVYLQMNSLRPEDTAVYYCHIDEVRQSSWTTSNIWGQGTQVTVSS , report its measured Kd.
result: 1.78

query: Try this binder too: A4-001 (VHH) VHH: VQLQESGGGLVQPGGSLRLSCAASGRSFSINTMGWYRQAPGKQRELVATVTRGGSTNYAGSVKGRFTISRDNAKNTVYLQMNSLRPEDTAVYYCHIDEVRQSSWTTSNIWGQGTQVTVSS
result: 6.47
